# CDC EC50 per entry
Target: human Claudin18.2 (human)
Test: cell-based or functional assay
I only need the number, in mg/L, no unit after it.

Task item: What measured CDC EC50 goes with 226A4B5 (antibody, V domains shown) VH: QAYLQQSGAELVRSGASVRMSCKASGFTFTSYNIHWVKQTPGQGLEWIGYIYPGSGGSNYNQKFMGKATLTADTSSSTVYMQISSLTSEDSAVYFCATGRGFAYWGQGTLVTVSA VL: DIVMTQSPSSLTVTAGEKVTMSCKSSQSLFNSGNQKNYLTWYQQKPGQPPKLLIYRASTRESGVPDRFTGSGSGTDFTLTISSVQAEDLAVYYCQNDYSYPLTFGTGTKLELK ?
Reply: 1.78

Task item: What measured CDC EC50 goes with 198F10B8 (antibody, V domains shown) VH: QAYLQQSGAELVRSGASVRMSCKASGYTFSSYNMHWVKQTPGQGLEWIGYIYPGNGGTNYNQKFKDKATLTADTSSSTAFIQISSLTSEDSAVYFCLTGRGFAYWGQGTLVTVSA VL: DIVMTQSPSSLTVTAGERVTMSCKSSQSLFNSGNQKNYLTWYQQKPGQPPKLLIYRASTRESGVPDRFTGSGSGTDFTLTISSVQAEDLAVYYCQNDYSYPLTFGVGTKLELK ?
Reply: 0.3

These entries and their values trace back to patent US20220073643A1.
